- experimentDescription: xn = mol fraction of the nth substance listed
- assayConditions: 298.15 K; 100 kPa; Liquid; Cone and plate viscometry; x1 = 0.5
assayReadout: viscosity (mPa·s)

INSERT INTO measurements (compound, readoutvalue) VALUES
  ('CCCCCCCC[P+](CC)(CC)CC.O=[N+]([O-])c1cn[n-]c1 [triethyloctylphosphonium 4-nitropyrazolide] + CCCCCCn1cc[n+](C)c1C.O=S(=O)([N-]S(=O)(=O)C(F)(F)F)C(F)(F)F', 241),
  ('CCCCCCC[P+](CC)(CC)CC.O=[N+]([O-])c1cn[n-]c1 [triethylheptylphosphonium 4-nitropyrazolide] + CC[P+](CC)(CC)COCCOC.O=S(=O)([N-]S(=O)(=O)C(F)(F)F)C(F)(F)F', 75);
